Origin of values: ChEMBL document CHEMBL1147367

test system: Saccharomyces cerevisiae; test: DNA damaging activity against DNA repair-deficient RS 322YK (rad 52Y) yeast assessed as drug level required to produce 12 mm zone of inhibition; type: functional
For each record, write down the corresponding log10(IC12).
// units: µg/mL (pre-log); metric: IC12; scale: log10

Let me know recorded log10(IC12) for CC(O)c1cc2c(o1)C(=O)c1ccccc1C2=O (configuration not stated) , thanks.
1.15

Tell us which log10(IC12) value is on record for `C=C(C)[C@H]1CC2=C(O1)C(=O)c1ccc(OC)c(OC)c1C2=O`
1.52

Quickly give me recorded log10(IC12) for `C=C(C)[C@H]1CC2=C(O1)C(=O)c1cccc(OC)c1C2=O`
1.68

Give a short answer stating reported log10(IC12) for C=C(C)C1CC2=C(O1)C(=O)c1cccc(O)c1C2=O (configuration not stated) .
1.90

Tell me log10(IC12) reported for `CC[C@@]1(O)C(=O)OCc2c1cc1n(c2=O)Cc2cc3ccccc3nc2-1`
-0.22

Input CC(O)c1cc2c(o1)C(=O)c1cccc(O)c1C2=O (configuration not stated) , output reported log10(IC12).
0.48

Specify reported log10(IC12) for the compound shown: `C=C(C)[C@@H]1OC2=C(C(=O)c3c(ccc(OC)c3OC)C2=O)[C@@H]1O`
1.67
